- Test system: MOLT-4 leukemia
- methodDescription: NCI-60 one-dose screen, 48 h
- details: 10 µM unless noted
- Protocol: Growth inhibition of the MOLT-4 human tumor cell line is measured as a screen for anti-cancer activity. Cells are grown in 96 well plates and exposed to the test compound for 48 hours. Compounds are tested at a single concentration, which is 10^-5 M for most compounds. The reported endpoint is percent growth (GI% or GIPRCNT), where numbers from 0 - 100% represent growth inhibition, and numbers from -100% - 0 represent cell death. For example, a value of 40 represents 60% growth inhibition. […]
About 83,000 compounds went through this panel and 20% of them were active in at least one assay; those are over-represented in the sample as a whole. Calls of active or inactive are those of the source. Rule for the calls: active = growth percent below 10; inactive = the rest.
Possible outcomes: 1 (yes) = active, 0 (no) = inactive

{"molecule": "C/C(=N/NC(=S)Nc1ccccc1)c1nc2ccc(Cl)cc2[nH]1", "targetEntity": "MOLT-4 leukemia", "categoryLabel": "1 (yes)"}
{"molecule": "C=C(C)[C@@H]1CC[C@]2(C(=O)N3CCNCC3)CC[C@]3(C)[C@H](CC[C@@H]4[C@@]5(C)C/C(=C/c6ccncc6)C(=O)C(C)(C)[C@@H]5CC[C@]43C)[C@@H]12", "targetEntity": "MOLT-4 leukemia", "categoryLabel": "0 (no)"}
{"molecule": "COc1ccc2c(c1)[nH]c(=O)c1c3cc(C)c(C)cc3cn21", "targetEntity": "MOLT-4 leukemia", "categoryLabel": "1 (yes)"}
{"molecule": "COc1ccc2c(c1)OC1=C(C(=O)OC1)C2c1cc(OC)c2c(c1)OCO2 (stereo not drawn)", "targetEntity": "MOLT-4 leukemia", "categoryLabel": "1 (yes)"}
{"molecule": "O=C1C2(c3ccccc3)C(c3ccccc3)=C(c3ccccc3)C1(c1ccccc1)C1CC=CC12 (stereo not drawn)", "targetEntity": "MOLT-4 leukemia", "categoryLabel": "0 (no)"}
{"molecule": "O=C(O)C1CCCCN1c1nc(Cl)nc(Cl)n1 (stereo not drawn)", "targetEntity": "MOLT-4 leukemia", "categoryLabel": "0 (no)"}
{"molecule": "O=C(Nc1ccncc1)C(=O)c1cn(S(=O)(=O)c2ccc(Cl)cc2)c2ccccc12", "targetEntity": "MOLT-4 leukemia", "categoryLabel": "0 (no)"}
{"molecule": "N=C(N)c1ccc(-c2ccc(-c3ccc(-c4cccs4)s3)s2)cc1", "targetEntity": "MOLT-4 leukemia", "categoryLabel": "0 (no)"}
{"molecule": "C=C[C@@H]1C[C@@H]2Cc3cc(Cl)ccc3N1O2", "targetEntity": "MOLT-4 leukemia", "categoryLabel": "0 (no)"}
{"molecule": "CC(C)C(C(=O)NCCN1CCOCC1)N1C(=O)/C(=C/c2ccc(Br)cc2)SC1=S (stereo not drawn)", "targetEntity": "MOLT-4 leukemia", "categoryLabel": "0 (no)"}
{"molecule": "CCOC(=O)c1cc(C(=O)c2cc(OC)c(OC)c(OC)c2)n2c1ccc1ccccc12", "targetEntity": "MOLT-4 leukemia", "categoryLabel": "0 (no)"}
{"molecule": "CCCCCCN1CSC(=S)N(CCCCCC)C1", "targetEntity": "MOLT-4 leukemia", "categoryLabel": "0 (no)"}
{"molecule": "COc1ccc(-c2[nH]nc(N)c2-c2cc(OC)c3c(c2)OCO3)cc1", "targetEntity": "MOLT-4 leukemia", "categoryLabel": "0 (no)"}
